# measured.on: Beta Secretase enzyme (BACE) (Homo sapiens)
# Sequence (P56817 46-501, species assumed): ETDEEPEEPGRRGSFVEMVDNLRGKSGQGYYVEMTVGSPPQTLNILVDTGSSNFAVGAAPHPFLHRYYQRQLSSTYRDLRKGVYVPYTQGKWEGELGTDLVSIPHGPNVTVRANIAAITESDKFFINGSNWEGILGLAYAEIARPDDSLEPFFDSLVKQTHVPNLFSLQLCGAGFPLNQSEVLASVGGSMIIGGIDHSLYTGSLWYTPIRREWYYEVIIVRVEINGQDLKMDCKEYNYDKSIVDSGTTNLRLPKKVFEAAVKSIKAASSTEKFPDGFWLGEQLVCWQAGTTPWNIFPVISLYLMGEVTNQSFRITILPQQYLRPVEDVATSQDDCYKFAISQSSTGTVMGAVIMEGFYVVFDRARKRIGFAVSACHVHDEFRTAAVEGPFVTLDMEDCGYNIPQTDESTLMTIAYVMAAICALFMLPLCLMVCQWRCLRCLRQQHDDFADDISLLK
# assay.remarks: In vitro enzymatic BACE FRET (fluorescence resonance energy transfer) assay
# Assay type: biochemical
# test.settings: average IC50, enzyme assay; read-out: BACE 1 FRET assay
recorded.endpoint: IC50 (nM)

>>> assay_value("NC1=N[C@@]2(CO1)c1cc(-c3cncc(C#CCO)c3)ccc1Oc1cnc(-c3ccnc(F)c3)cc12")
0.3
>>> assay_value("COc1cc(F)c2c(c1)[C@]1(COC(N)=N1)c1cc(-c3cncc(C(C)(F)F)c3)ccc1O2")
345
>>> assay_value("COc1ccc2c(c1)[C@@]1(COC(N)=N1)c1cc(-n3ccc(C)n3)cc(F)c1O2")
1000
>>> assay_value("CC1(COc2cc(F)c3c(c2)[C@]2(COC(N)=N2)c2cc(-c4ccc(F)nc4)ccc2O3)COC1")
2.2
>>> assay_value("NC1=N[C@@]2(CO1)c1cc(-c3cccnc3F)ccc1Oc1nc(F)c(I)cc12")
10600
>>> assay_value("COCC1SC(N)=N[C@]12c1cc(-c3cccnc3F)ccc1Oc1cnc(-c3ccnc(F)c3)cc12 (stereo partly drawn)")
335
>>> assay_value("N#Cc1cccc(-c2cc3c(cn2)Oc2c(F)cc(C4=CCOCC4)cc2[C@]32COC(N)=N2)c1")
9.3
>>> assay_value("CC1(C)CCN(c2cnc3c(c2)[C@]2(COC(N)=N2)c2cc(-c4cccnc4F)ccc2O3)CC1")
2.5
>>> assay_value("CC1(COc2cc3c(cc2F)Oc2ccc(-c4cccc(C#N)c4)cc2[C@@]32COC(N)=N2)COC1")
13.9
>>> assay_value("CC1(C#Cc2cc3c(c(F)n2)Oc2ccc(-c4cccnc4F)cc2C32COC(N)=N2)COC1 (stereo not drawn)")
1.1
>>> assay_value("CC1(C)C=C(c2cc3c(cn2)Oc2ccc(-c4cncc(F)c4)cc2[C@@]32COC(N)=N2)CCO1")
1.3
>>> assay_value("Cc1noc(C)c1-c1cccc(-c2ccc3c(c2)[C@@]2(COC(N)=N2)c2cc(C4=CCOCC4)ncc2O3)c1")
23
>>> assay_value("NC1=N[C@]2(CS1)c1cc(Br)ccc1Oc1cnc(Cl)cc12")
11600
>>> assay_value("Cc1nc(F)ccc1-c1ccc2c(c1)[C@@]1(COC(N)=N1)c1cc(-c3ccnc(F)c3)ncc1O2")
66.1
>>> assay_value("COc1cc(F)c2c(c1)[C@]1(COC(N)=N1)c1cc(-c3cncc(CC#N)c3)ccc1O2")
131
>>> assay_value("CC1(COc2cc(F)c3c(c2)[C@]2(COC(N)=N2)c2cc(-c4cnccn4)ccc2O3)COC1")
3.1
>>> assay_value("NC1=N[C@@]2(CO1)c1cc(-c3cccnc3)c(F)cc1Oc1c(F)cc(C3=CCCOC3)cc12")
96.8
>>> assay_value("NC1=N[C@@]2(CO1)c1cc(-c3ccc(F)cc3)ccc1Oc1cnc(C3CCOCC3)cc12")
70.9
>>> assay_value("CC#Cc1cncc(-c2ccc3c(c2)[C@@]2(COC(N)=N2)c2cc(C#CC(C)(C)O)cnc2O3)c1")
0.8
>>> assay_value("C=Cc1cc2c(c(F)n1)Oc1ccc(-c3cncc(F)c3)cc1C21COC(N)=N1 (stereo not drawn)")
0.4
>>> assay_value("CC#Cc1cncc(-c2ccc3c(c2)[C@@]2(COC(N)=N2)c2cc(C#CC(C)(C)O)cc(F)c2O3)c1")
0.6
>>> assay_value("CC(C)(C)C#Cc1ccc2c(c1)[C@@]1(COC(N)=N1)c1cc(C3=CCOCC3)ncc1O2")
9.7
>>> assay_value("CC1(C)C=C(c2cc3c(c(F)n2)Oc2ccc(-c4cccnc4F)cc2[C@@]32CSC(N)=N2)CCO1")
108
>>> assay_value("CC(C)(C)COc1cc(F)c2c(c1)[C@@]1(COC(N)=N1)c1cc(-c3cncnc3)c(F)cc1O2")
159
>>> assay_value("NC1=N[C@]2(CS1)c1cc(-c3cccnc3)c(F)cc1Oc1c(F)cc(C3=CCCOC3)cc12")
162
>>> assay_value("CC1(C)C=C(c2cnc3c(c2)[C@]2(CSC(N)=N2)c2cc(-c4cncnc4)ccc2O3)CCO1")
0.9
>>> assay_value("Cc1ccc(-c2ccc3c(c2)[C@@]2(COC(N)=N2)c2cc(C4=CCOCC4)ncc2O3)c(F)n1")
36
>>> assay_value("CC1(C)C[C@H](c2cc3c(cn2)Oc2ccc(-c4cccnc4)cc2[C@@]32COC(N)=N2)CCO1")
10.4
>>> assay_value("CC1(C)CC(c2cc3c(cn2)Oc2ccc(-c4cncc(F)c4)cc2[C@@]32COC(N)=N2)=CCO1")
2
>>> assay_value("NC1=N[C@@]2(CS1)c1cc(-c3cncc(F)c3)ccc1Oc1ncc(C3=CCCOC3)cc12")
0.6

* * *

# Test system: Aβ40 in conditioned medium of cells stably expressing Amyloid Precursor Protein (APP)
# assay.remarks: In vitro BACE cell-based assay (Aβ40 in conditioned medium, sandwich ELISA)
# test.settings: Homo sapiens, HEK293, average IC50; read-out: HEK cell assay
pIC50: −log10 of the molar value.
recorded.endpoint: pIC50

>>> assay_value("C[C@@H]1CN(c2cc(F)c3c(c2)[C@]2(COC(N)=N2)c2cc(-c4cncc(F)c4)ccc2O3)C[C@H](C)O1 [Example 274]")
7.98
>>> assay_value("CC1(/C=C/c2cnc3c(c2)[C@]2(COC(N)=N2)c2cc(-c4cccnc4F)ccc2O3)COC1 [Example 175]")
9.00
>>> assay_value("NC1=N[C@@]2(CO1)c1cc(-c3cccc(Cl)c3)ccc1Oc1cnc(C3CCOCC3)cc12 [Example 241]")
7.20
>>> assay_value("C[C@@H]1CN(c2cc(F)c3c(c2)[C@]2(COC(N)=N2)c2cc(-c4cccnc4F)ccc2O3)C[C@H](C)O1 [Example 303]")
8.17
>>> assay_value("NC1=NC2(CO1)c1cc(-c3cccnc3F)ccc1Oc1nc(F)c(-c3ccnc(F)c3)cc12 (stereo not drawn) [Example 151]")
7.29
>>> assay_value("NC1=N[C@@]2(CO1)c1cc(-c3cc(Cl)cnc3F)ccc1Oc1cnc(C3=CCOCC3)cc12 [Example 361]")
8.21
>>> assay_value("NC1=NC2(CO1)c1cc(-c3cccnc3)ccc1Oc1c2cc(C2CCOCC2)nc1F (stereo not drawn) [Example 752]")
7.11
>>> assay_value("CC(C)(C)C#Cc1cnc2c(c1)[C@@]1(COC(N)=N1)c1cc(-c3cncnc3)c(F)cc1O2 [Example 338]")
5.91
>>> assay_value("CC(C)(C#N)COc1cc(F)c2c(c1)[C@]1(COC(N)=N1)c1cc(-c3cnccn3)ccc1O2 [Example 93]")
7.84
>>> assay_value("N#Cc1cccc(-c2ccc3c(c2)[C@@]2(CSC(N)=N2)c2cc(C4=CCCOC4)cnc2O3)c1F [Example 778]")
7.27
>>> assay_value("NC1=N[C@@]2(CO1)c1cc(OCc3cccc(C(F)(F)F)c3)ccc1Oc1ncc(-c3cccnc3)cc12 [Example 985]")
6.54
>>> assay_value("Cc1cc(-c2cc3c(c(F)n2)Oc2ccc(-c4cccnc4F)cc2[C@@]32COC(N)=N2)ccn1 [Example 744]")
7.92
>>> assay_value("Cc1ccc(-c2cnc3c(c2)[C@]2(COC(N)=N2)c2cc(OCc4cccnc4)ccc2O3)cn1 [Example 977]")
6.37
>>> assay_value("NC1=N[C@@]2(CO1)c1cc(-c3ccc(F)nc3)ccc1Oc1c(F)cc(C3=CCOCC3)cc12 [Example 260]")
7.96
>>> assay_value("CC1(COc2cc3c(cc2F)Oc2ccc(-c4ccc(F)nc4)cc2[C@@]32COC(N)=N2)COC1 [Example 326]")
7.21
>>> assay_value("CC1(COc2cc(F)c3c(c2)[C@]2(CSC(N)=N2)c2cc(-c4cccnc4F)ccc2O3)COC1 [Example 794]")
8.22
>>> assay_value("CC1(C#Cc2cncc(-c3ccc4c(c3)[C@@]3(COC(N)=N3)c3cc(C5=CCCOC5)ncc3O4)c2)COC1 [Example 813]")
7.28
>>> assay_value("C[C@@H]1CN(c2cc(F)c3c(c2)[C@]2(COC(N)=N2)c2cc(-c4cnccn4)ccc2O3)C[C@H](C)O1 [Example 94]")
7.71
>>> assay_value("NC1=N[C@@]2(CO1)c1cc(-c3cccnc3F)ccc1Oc1ncc(-c3cccnc3F)cc12 [Example 732]")
8.52
>>> assay_value("NC1=N[C@@]2(CO1)c1cc(-c3cncc(F)c3)ccc1Oc1c(F)cc(N3CC4CCC(C3)O4)cc12 [Example 283]")
8.49
>>> assay_value("NC1=N[C@@]2(CO1)c1cc(OCCCc3ccccc3)ccc1Oc1ncc(-c3cccnc3)cc12 [Example 981]")
6.58
>>> assay_value("Cn1cc(-c2cc3c(cn2)Oc2ccc(-c4ccccc4)cc2[C@@]32COC(N)=N2)cn1 [Example 367]")
7.13
>>> assay_value("CC#Cc1cncc(-c2ccc3c(c2)[C@@]2(COC(N)=N2)c2cc(Cl)nc(F)c2O3)c1 [Example 761]")
6.73
>>> assay_value("CC1(C#Cc2cnc3c(c2)[C@]2(COC(N)=N2)c2cc(-c4cnccc4F)ccc2O3)COC1 [Example 104]")
7.92
>>> assay_value("CC(C)(O)C#Cc1cncc(-c2ccc3c(c2)[C@@]2(COC(N)=N2)c2cc(C4=CCOCC4)ncc2O3)c1 [Example 818]")
6.82
>>> assay_value("NC1=N[C@@]2(CO1)c1cc(-c3cncc(C#CCO)c3)ccc1Oc1cnc(-c3ccnc(F)c3)cc12 [Example 825]")
8.22
>>> assay_value("NC1=N[C@@]2(CO1)c1cc(-c3ccc(F)nc3)ccc1Oc1c(F)cc(C3CCOCC3)cc12 [Example 301]")
7.80
>>> assay_value("CC(C)(O)C#Cc1cncc(-c2ccc3c(c2)[C@@]2(COC(N)=N2)c2cc(C4=CCCOC4)ncc2O3)c1 [Example 819]")
6.62
>>> assay_value("NC1=N[C@@]2(CS1)c1cc(-c3cncc(F)c3)ccc1Oc1ncc(C3=CCCOC3)cc12 [Example 770]")
8.00
>>> assay_value("COc1cc(F)c2c(c1)[C@]1(COC(N)=N1)c1cc(-c3cncc(C#CC4(C)COC4)c3)ccc1O2 [Example 821]")
5.54

Source of measurements: patent US8883782B2
